Measured values drawn from patent US6399648B1 for this set.

Target: UniProt P62942
Sequence (P62942 whole entry, species assumed): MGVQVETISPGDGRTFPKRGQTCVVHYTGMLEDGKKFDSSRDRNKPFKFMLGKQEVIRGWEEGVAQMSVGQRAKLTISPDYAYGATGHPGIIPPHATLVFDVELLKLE
Assay: Inhibition of FKBP peptidyl-prolyl isomerase (rotamase) activity, apparent Ki
Format: biochemical
Conditions: Table V comments; read-out: Ki rotomase
pKi: −log10 of the molar value.
attribute_measured: pKi

In: For UniProt P62942, provide pKi of CCC(C)(C)C(=O)C(=O)N1CCCCC1C(=O)O (centres unmarked) please.
Out: < 5.00

In: Also, CCC(C)(C)C(=O)C(=O)N1CCCC1C(=O)O (centres unmarked) please.
Out: < 5.11
